# experimental_target: recombinant human PRDX6 (peroxiredoxin 6) (Homo sapiens, UniProt P30041)
# Sequence (P30041 whole entry): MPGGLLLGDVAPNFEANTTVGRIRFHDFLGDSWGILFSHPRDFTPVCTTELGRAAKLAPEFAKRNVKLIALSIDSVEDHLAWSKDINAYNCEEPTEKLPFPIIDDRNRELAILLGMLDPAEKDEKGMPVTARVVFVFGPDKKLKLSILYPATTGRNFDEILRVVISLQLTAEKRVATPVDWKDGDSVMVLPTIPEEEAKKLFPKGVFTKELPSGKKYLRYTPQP
# assay: radioactive PLA2 assay, […]-DPPC liposomes, scintillation counting
experimental_endpoint: IC50

Notebook: pull reported IC50 for recombinant human PRDX6 (peroxiredoxin 6) (Homo sapiens, UniProt P30041), entry CCN(CC)CCN(Cc1ccc(-c2ccc(C(F)(F)F)cc2)cc1)C(=O)Cn1c(SCc2ccc(F)cc2)nc(=O)c2c1CCC2 [Darapladib]
~500 nM
